Source: BigSolDB 2.1

- protocol.conditions: in DMAc, 303.15 K
readout: solubility (mole fraction)
Note: the reply should be a number with no unit written.

// query GET /values?readout=solubility (mole fraction)&item= O=C(O)c1ccc(-c2ccc(C(=O)O)o2)o1
// result 0.0208

====

- protocol.conditions: in acetonitrile, 313.15 K
readout: solubility (mole fraction)

// query GET /values?readout=solubility (mole fraction)&item= O=C(O)c1ccc(-c2ccc(C(=O)O)o2)o1
// result 3.47e-06

====

- protocol.conditions: in methanol, 298.15 K
readout: solubility (mole fraction)
Note: the reply should be a number with no unit written.

// query GET /values?readout=solubility (mole fraction)&item= O=C(O)c1ccc(-c2ccc(C(=O)O)o2)o1
// result 0.000331
